testedTarget: T1, B3GNT2 (Homo sapiens, UniProt Q9NY97)
T1 construct: The respective ORFs of candidate genes [CD274 (NM_014143), MCL1 (NM_021960), JUNB (NM_002229), and B3GNT2 (NM_006577)] were synthesized; expressed in transfected cells; host or cells: A375 melanoma cells (lentiviral ORF overexpression)
T1 sequence (Q9NY97 1-397): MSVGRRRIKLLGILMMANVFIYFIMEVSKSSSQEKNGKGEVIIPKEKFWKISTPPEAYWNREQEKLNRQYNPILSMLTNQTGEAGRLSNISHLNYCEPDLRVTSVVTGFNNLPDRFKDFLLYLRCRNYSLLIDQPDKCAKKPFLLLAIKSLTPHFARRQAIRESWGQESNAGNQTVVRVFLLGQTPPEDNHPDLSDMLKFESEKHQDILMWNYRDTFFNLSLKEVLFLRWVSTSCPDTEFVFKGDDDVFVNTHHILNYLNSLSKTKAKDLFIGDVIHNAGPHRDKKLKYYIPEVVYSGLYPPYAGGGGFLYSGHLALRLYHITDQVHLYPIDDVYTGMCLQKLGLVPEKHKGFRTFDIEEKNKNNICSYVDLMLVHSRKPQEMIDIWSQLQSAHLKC
measurementNotes: Co-IP of FLAG-tagged B3GNT2 followed by mass spectrometry
Format: cell-based
Set-up: unit not given here
conditionDetails: Co-IP followed by mass spectrometry of B3GNT2; C-term tag, FLAG pull-down
Could you please report measured C-term flag for the items listed next?
Just the number, please.

// query What value of measured C-term flag is listed for IL13RA2 (protein) DTEIKVNPPQDFEIVDPGYLGYLYLQWQPPLSLDHFKECTVEYELKYRNIGSETWKTIITKNLHYKDGFDLNKGIEAKIHTLLPWQCTNGSEVQSSWAETTYWISPQGIPETKVQDMDCVYYNWQYLLCSWKPGIGVLLDTNYNLFYWYEGLDHALQCVDYIKADGQNIGCRFPYLEASDYKDFYICVNGSSENKPIRSSYFTFQLQNIVKPLPPVYLTFTRESSCEIKLKWSIPLGPIPARCFDYEIEIREDDTTLVTATVENETYTLKTTNETRQLCFVVRSKVNIYCSDDGIWSEWSDKQCWEGEDLSKKTLLRFWLPFGFILILVIFVTGLLLRKPNTYPKMIPEFFCDT ?
// result 2

// query What value of measured C-term flag is listed for C1orf68 (protein) MCDQQKQPQFPPSCVKGSGLGAGQGSNGASVKCPVPCQTQTVCVTGPAPCPTQTYVKYQVPCQTQTYVKCPAPCQRTYVKYPTPCQTYVKCPAPCQTTYVKCPTPCQTYVKCPAPCQMTYIKSPAPCQTQTCYVQGASPCQSYYVQAPASGSTSQYCVTDPCSAPCSTSYCCLAPRTFGVSPLRRWIQRPQNCNTGSSGCCENSGSSGCCGSGGCGCSCGCGSSGCCCLGIIPMRSRGPACCDHEDDCCC ?
// result 2

// query What value of measured C-term flag is listed for MTCH2 (protein, UniProt Q9Y6C9 2-303, looked up) Mitochondrial carrier homolog …: ADAASQVLLGSGLTILSQPLMYVKVLIQVGYEPLPPTIGRNIFGRQVCQLPGLFSYAQHIASIDGRRGLFTGLTPRLCSGVLGTVVHGKVLQHYQESDKGEELGPGNVQKEVSSSFDHVIKETTREMIARSAATLITHPFHVITLRSMVQFIGRESKYCGLCDSIITIYREEGILGFFAGLVPRLLGDILSLWLCNSLAYLVNTYALDSGVSTMNEMKSYSQAVTGFFASMLTYPFVLVSNLMAVNNCGLAGGCPPYSPIYTSWIDCWCMLQKEGNMSRGNSLFFRKVPFGKTYCCDLKMLI ?
// result 2

// query What value of measured C-term flag is listed for SRP14 (protein) VLLESEQFLTELTRLFQKCRTSGSVYITLKKYDGRTKPIPKKGTVEGFEPADNKCLLRATDGKKKISTVVSSKEVNKFQMAYSNLLRANMDGLKKRDKKNKTKKTKAAAAAAAAAPAAAATAPTTAATTAATAAQ ?
// result 3

// query What value of measured C-term flag is listed for PURA (protein) ADRDSGSEQGGAALGSGGSLGHPGSGSGSGGGGGGGGGGGGSGGGGGGAPGGLQHETQELASKRVDIQNKRFYLDVKQNAKGRFLKIAEVGAGGNKSRLTLSMSVAVEFRDYLGDFIEHYAQLGPSQPPDLAQAQDEPRRALKSEFLVRENRKYYMDLKENQRGRFLRIRQTVNRGPGLGSTQGQTIALPAQGLIEFRDALAKLIDDYGVEEEPAELPEGTSLTVDNKRFFFDVGSNKYGVFMRVSEVKPTYRNSITVPYKVWAKFGHTFCKYSEEMKKIQEKQREKRAACEQLHQQQQQQQEETAAATLLLQGEEEGEED ?
// result 3
